- System: Escherichia coli TOP10;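 note: peptides expressed intracellularly from a pBAD plasmid library in pooled LB shake-flask culture, induced with 0.3% L-arabinose, DNA abundance read by NGS, three biological replicates, DESeq2 with apeglm shrinkage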
- EXPERIMENT: shrunken log2 fold change of peptide-encoding DNA abundance (4.5 h post-induction vs induction); higher = less antimicrobial activity (less host growth inhibition)
- COND: time post-induction: 4.5 h; library: site-saturation at positions 5, 18, 19, 20
Below: a set of entries, each annotated with reported shrunken log2 fold change.

RRIRMRPPRLPRPRPRPHPHPRP ... 0.187
RRIRRRPPRLPRPRPRPNPQPRP ... 0.631
RRIRCRPPRLPRPRPRPEMCPRP ... 0.0156
RRIRHRPPRLPRPRPRPTRNPRP ... -0.0346

Hello, I am looking for reported shrunken log2 fold change with Escherichia coli TOP10 for RRIRCRPPRLPRPRPRPHLPPRP . Could you help? -0.195

Can you check RRIRKRPPRLPRPRPRPQQAPRP next? -0.0621

Please answer likewise for RRIRSRPPRLPRPRPRPMPDPRP 0.235

Follow-up item: RRIRSRPPRLPRPRPRPTDTPRP -0.214

Now give it for RRIRPRPPRLPRPRPRPFGSPRP too. 0.0959

Input RRIRCRPPRLPRPRPRPTKMPRP -0.301

Next sequence up: RRIRCRPPRLPRPRPRPCYHPRP -0.79

Could you do the same for RRIRKRPPRLPRPRPRPERLPRP , please? 0.209

Another sequence to look at: RRIRLRPPRLPRPRPRPCDYPRP -0.191

Further, for RRIRARPPRLPRPRPRPMVPPRP ? 0.0221
